Quick reference for melting point among some molecules
Structures can show the parent of a compound that is named as a salt.

Before answering, review these 8 worked examples.
[
  {
    "Molecule": "Cc1cccc(-c2cc(F)ccc2Oc2ccc3nnc(Cl)n3n2)c1",
    "melting point": "94.5 to 95.1 °C"
  },
  {
    "Molecule": "O=C(c1ccccc1)c1cccc(Oc2ccc3nnc(Cl)n3n2)c1",
    "melting point": "148 °C"
  },
  {
    "Molecule": "CCc1nnc2cc(C)c(Oc3cc(C(F)(F)F)ccc3-c3cncnc3)nn12",
    "melting point": "149 to 150 °C"
  },
  {
    "Molecule": "O=C(c1ccccc1)c1ccccc1Oc1ccc2nnc(C(F)(F)F)n2n1",
    "melting point": "112.1 °C"
  },
  {
    "Molecule": "Cc1ncc(-c2ccc(C(F)(F)F)cc2Oc2cc(C)c3nnc(Cl)n3n2)cn1",
    "melting point": "200 to 202 °C"
  },
  {
    "Molecule": "COc1ccc(-c2ccccc2Oc2ccc3nnc(Cl)n3n2)cc1",
    "melting point": "138.1 °C"
  },
  {
    "Molecule": "COc1cccc(-c2cc(F)ccc2Oc2ccc3nnc(Cl)n3n2)c1 (as salt: sodium)",
    "melting point": "91.3 to 93.4 °C"
  },
  {
    "Molecule": "Cc1cc(Oc2cc(C(F)(F)F)ccc2-c2cncnc2)nn2cnnc12",
    "melting point": "230 to 234 °C"
  }
]

QUERY: Requested read-out: melting point. Entry: Cc1cc(Oc2ccc(Cl)cc2-c2cncnc2)nn2c(Cl)nnc12
RESULT: 208 to 210 °C

====

Target under test: Rev-Erb alpha (Homo sapiens, UniProt P20393)
Sequence (P20393 284-614 limits assumed): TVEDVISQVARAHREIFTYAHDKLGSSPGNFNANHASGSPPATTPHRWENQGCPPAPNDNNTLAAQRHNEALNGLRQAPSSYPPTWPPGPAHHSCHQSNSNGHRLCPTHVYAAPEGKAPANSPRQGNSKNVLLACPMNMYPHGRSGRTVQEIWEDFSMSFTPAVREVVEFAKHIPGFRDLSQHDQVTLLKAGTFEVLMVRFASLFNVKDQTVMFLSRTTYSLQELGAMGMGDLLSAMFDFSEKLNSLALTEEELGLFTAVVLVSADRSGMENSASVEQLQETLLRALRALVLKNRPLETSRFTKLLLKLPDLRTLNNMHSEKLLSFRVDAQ
Assay remarks: TR-FRET (HTRF) assay of Rev-Erb alpha LBD with NCoR peptide ID1
Assay type: biochemical
Condition context: cell-free, Rev-Erb alpha LBD His 20 nM, NCoR ID1 30 nM
Quick reference for EC50 among some molecules

Before answering, review these 4 worked examples.
[
  {
    "Molecule": "Fc1cccc(-c2ccccc2Oc2ccc3nnc(Cl)n3n2)c1 [Cpd.4-3]",
    "EC50": "< 0.1 µM"
  },
  {
    "Molecule": "Clc1nnc2ccc(Oc3ccccc3Cc3ccccc3)nn12 [Cpd.4-4]",
    "EC50": "0.1 to 1 µM"
  },
  {
    "Molecule": "O=C(c1ccccc1)c1cccc(Oc2ccc3nnc(Cl)n3n2)c1 [Cpd.3-2]",
    "EC50": "< 0.1 µM"
  },
  {
    "Molecule": "FC(F)(F)c1nnc2ccc(Oc3cccc(-c4ccccc4)c3)nn12 [Cpd.3-3]",
    "EC50": "1.1 to 6 µM"
  }
]

Switching to the query record.
QUERY: Kindly state the measured EC50 obtained for FC(F)(F)c1nnc2ccc(Oc3cccc(Cc4ccccc4)c3)nn12 [Cpd.3-5] with Rev-Erb alpha (Homo sapiens, UniProt P20393).
RESULT: 0.1 to 1 µM

====

Quick reference for EC50 among some compounds
Target under test: Rev-Erb alpha (Homo sapiens, UniProt P20393)
Assay remarks: M2H (mammalian two-hybrid) cellular activation assay of Rev-Erb alpha
Assay type: cell-based
Condition context: M2H assay, HEK293 cells, Gal4-Rev-Erb alpha / VP16-NCoR, luciferase reporter

Before answering, review these 8 worked examples.
[
  {
    "Compound": "CC(=O)Nc1ccc(Oc2ccc3nnc(Cl)n3n2)c(-c2ccccc2)c1",
    "EC50": "1000 to 6000 nM"
  },
  {
    "Compound": "Clc1nnc2ccc(Oc3cccc(-c4ccccc4)c3)nn12",
    "EC50": "100 to 1000 nM"
  },
  {
    "Compound": "CCCCN(CCCC)c1ccc(Oc2ccc3nnc(Cl)n3n2)c(-c2ccccc2)c1",
    "EC50": "100 to 1000 nM"
  },
  {
    "Compound": "Cc1cc(Oc2ccc3nnc(Cl)n3n2)c(-c2ccccc2)cc1C",
    "EC50": "< 100 nM"
  },
  {
    "Compound": "COc1ccc(-c2cccc(Oc3ccc4nnc(Cl)n4n3)c2)cc1",
    "EC50": "1000 to 6000 nM"
  },
  {
    "Compound": "O=C(c1ccccc1)c1cccc(Oc2ccc3nnc(Cl)n3n2)c1",
    "EC50": "100 to 1000 nM"
  },
  {
    "Compound": "Fc1ccc(-c2ccccc2Oc2ccc3nnc(Cl)n3n2)cc1F",
    "EC50": "100 to 1000 nM"
  },
  {
    "Compound": "COc1cccc(-c2cc(F)ccc2Oc2ccc3nnc(C(F)(F)F)n3n2)c1",
    "EC50": "1000 to 6000 nM"
  }
]

QUERY: Requested read-out: EC50. Entry: Fc1ccc(Oc2ccc3nnc(Cl)n3n2)c(-c2cccc(C(F)(F)F)c2)c1
RESULT: 1000 to 6000 nM

====

Observation type: melting point

Before answering, review these 5 worked examples.
[
  {
    "Compound": "Clc1ccc(Oc2ccc3nnc(Cl)n3n2)c(Cc2ccccc2)c1",
    "melting point": "161 to 162 °C"
  },
  {
    "Compound": "Clc1ccc(-c2ccccc2Oc2ccc3nnc(Cl)n3n2)cc1",
    "melting point": "173 °C"
  },
  {
    "Compound": "COc1cccc(-c2cc(F)c(F)cc2Oc2ccc3nnc(C(F)(F)F)n3n2)c1",
    "melting point": "52 to 55 °C"
  },
  {
    "Compound": "Fc1ccc(-c2ccccc2Oc2ccc3nnc(Cl)n3n2)cc1F",
    "melting point": "129.3 °C"
  },
  {
    "Compound": "CNC(Cc1ccccc1)c1ccc(Oc2ccc3nnc(Cl)n3n2)c(-c2ccccc2)c1 (stereo not shown)",
    "melting point": "60.8 to 62.5 °C"
  }
]

QUERY: Requested read-out: melting point. Entry: COC(=O)c1cccc(-c2ccccc2Oc2ccc3nnc(Cl)n3n2)c1
RESULT: 236 to 246 °C

QUERY: What about O=C(c1ccccc1)c1cc(Br)ccc1Oc1ccc2nnc(Cl)n2n1 ?
RESULT: 135 to 137 °C

QUERY: What about Clc1ccc(Oc2ccc3nnc(Cl)n3n2)c(-c2cncnc2)c1 ?
RESULT: 152 to 155 °C

QUERY: What about CN(Cc1ccccc1)Cc1ccc(-c2ccccc2)c(Oc2ccc3nnc(Cl)n3n2)c1 ?
RESULT: 119 to 122 °C

QUERY: What about COc1ncc(F)cc1-c1ccc(C(F)(F)F)cc1Oc1ccc2nnc(Cl)n2n1 ?
RESULT: 60 to 68 °C

QUERY: What about FC(F)(F)c1ccc(-c2cccnc2)c(Oc2nn3c(Cl)nnc3c3ccccc23)c1 ?
RESULT: 175 to 177 °C

QUERY: What about COc1nccc(C)c1-c1ccc(C(F)(F)F)cc1Oc1cc(C)c2nnc(Cl)n2n1 ?
RESULT: 139 to 141 °C

QUERY: What about Cc1ccc2c(c1)c(Oc1cc(C(F)(F)F)ccc1-c1ccccc1)nn1c(Cl)nnc21 ?
RESULT: 195 to 197 °C

====

Observation type: melting point

Before answering, review these 2 worked examples.
[
  {
    "Compound": "CCNc1ccc(Oc2ccc3nnc(Cl)n3n2)c(-c2ccccc2)c1 [Cpd.4-54]",
    "melting point": "72 to 77 °C"
  },
  {
    "Compound": "CCCN(CCC)c1ccc(Oc2ccc3nnc(Cl)n3n2)c(-c2ccccc2)c1 [Cpd.4-53]",
    "melting point": "106 to 109 °C"
  }
]

Switching to the query record.
QUERY: Requested read-out: melting point. Entry: Clc1cccc(-c2cccc(Oc3ccc4nnc(Cl)n4n3)c2)c1 [Cpd.3-13]
RESULT: 77.5 to 123.8 °C

====

Quick reference for EC50 among some molecules
Target under test: Rev-Erb alpha (Homo sapiens, UniProt P20393)
Assay remarks: M2H (mammalian two-hybrid) cellular activation assay of Rev-Erb alpha
Assay type: cell-based
Condition context: M2H assay, HEK293 cells, Gal4-Rev-Erb alpha / VP16-NCoR, luciferase reporter
Structures can show the parent of a compound that is named as a salt.

Before answering, review these 8 worked examples.
[
  {
    "Molecule": "FC(F)(F)c1ccc(-c2cncnc2)c(Oc2nn3c(C(F)(F)F)nnc3c3ccccc23)c1 [Cpd.5-62]",
    "Target under test": "Rev-Erb alpha (Homo sapiens, UniProt P20393)",
    "Observation type": "EC50",
    "Result": "1 to 6 µM"
  },
  {
    "Molecule": "Cc1ccc(-c2cc(F)ccc2Oc2ccc3nnc(Cl)n3n2)cc1 [Cpd.4-143]",
    "Target under test": "Rev-Erb alpha (Homo sapiens, UniProt P20393)",
    "Observation type": "EC50",
    "Result": "0.1 to 1 µM"
  },
  {
    "Molecule": "CC(C)N(Cc1ccc(Oc2ccc3nnc(Cl)n3n2)c(-c2ccccc2)c1)C(C)C [Cpd.4-166]",
    "Target under test": "Rev-Erb alpha (Homo sapiens, UniProt P20393)",
    "Observation type": "EC50",
    "Result": "1 to 6 µM"
  },
  {
    "Molecule": "CC(C)Nc1ccc(-c2ccccc2)c(Oc2ccc3nnc(Cl)n3n2)c1 [Cpd.4-189]",
    "Target under test": "Rev-Erb alpha (Homo sapiens, UniProt P20393)",
    "Observation type": "EC50",
    "Result": "< 0.1 µM"
  },
  {
    "Molecule": "Cc1ccc(Oc2ccc3nnc(Cl)n3n2)c(-c2ccccc2)c1 [Cpd.4-27]",
    "Target under test": "Rev-Erb alpha (Homo sapiens, UniProt P20393)",
    "Observation type": "EC50",
    "Result": "< 0.1 µM"
  },
  {
    "Molecule": "NC(=O)c1ccc(Oc2ccc3nnc(Cl)n3n2)c(-c2ccccc2)c1 [Cpd.4-70]",
    "Target under test": "Rev-Erb alpha (Homo sapiens, UniProt P20393)",
    "Observation type": "EC50",
    "Result": "> 6 µM"
  },
  {
    "Molecule": "Fc1ccc(-c2ccccc2Oc2ccc3nnc(Cl)n3n2)c(F)c1 [Cpd.4-13]",
    "Target under test": "Rev-Erb alpha (Homo sapiens, UniProt P20393)",
    "Observation type": "EC50",
    "Result": "0.1 to 1 µM"
  },
  {
    "Molecule": "Cc1cc(Oc2cc(C(F)(F)F)ccc2-c2cncnc2)nn2c(C(F)(F)F)nnc12 [Cpd.5-63]",
    "Target under test": "Rev-Erb alpha (Homo sapiens, UniProt P20393)",
    "Observation type": "EC50",
    "Result": "1 to 6 µM"
  }
]

QUERY: Requested read-out: EC50. Entry: COc1ccccc1-c1cccc(Oc2ccc3nnc(Cl)n3n2)c1 [Cpd.3-8]
RESULT: 1 to 6 µM

QUERY: What about FC(F)(F)c1ccc(-c2cccc(CNC3CC3)c2)c(Oc2ccc3nnc(Cl)n3n2)c1 [Cpd.4-168, hydrochloride] ?
RESULT: 1 to 6 µM

QUERY: What about CNc1ccc(-c2ccccc2)c(Oc2ccc3nnc(Cl)n3n2)c1 [Cpd.4-52] ?
RESULT: 0.1 to 1 µM

Values were extracted from patent US9586963B2.
